Reference source: ChEMBL document CHEMBL3734662

protocol_details: Intrinsic clearance in human liver microsomes at 1 uM after 30 mins by LC-MS/MS analysis
Type: ADME
run_parameters: read-out: CLH
# label = Satisfied if microsomal CLint at 1 µM < 10 µL/min/mg else Not satisfied

| test_smiles | classification |
| --- | --- |
| Nc1ncc(-c2nc(N3CCOCC3)nc3c2CCN3c2ccc(CN3CCOCC3)cc2)cn1 | Satisfied |
| CN1CCN(Cc2ccc(N3CCc4c(-c5cnc(N)nc5)nc(N5CCOCC5)nc43)cc2)CC1 | Not satisfied |
| CN1CCN(C(=O)c2ccc(N3CCc4c(-c5cnc(N)nc5)nc(N5CCOCC5)nc43)cc2)CC1 | Not satisfied |
| CN1CCN(C(=O)c2cc(N3CCc4c(-c5cnc(N)nc5)nc(N5CCOCC5)nc43)ccn2)CC1 | Not satisfied |

Please state whether microsomal CLint at 1 µM is below 10 µL/min/mg for Nc1ncc(-c2nc(N3CCOCC3)nc3c2CCN3c2ccc(CN3CCOCC3)cc2F)cn1
Not satisfied

Next molecule: Nc1ncc(-c2nc(N3CCOCC3)nc3c2CCN3c2ccc(C(=O)N3CCOCC3)cc2F)cn1
Satisfied

Next molecule: Nc1ncc(-c2nc(N3CCOCC3)nc3c2CCN3c2cccnc2)cn1
Satisfied

Next molecule: CN1CCN(C(=O)c2ccc(N3CCc4c(-c5cnc(N)nc5)nc(N5CCOCC5)nc43)cn2)CC1
Not satisfied

Next molecule: CN1CCN(C(=O)c2cccc(N3CCc4c(-c5cnc(N)nc5)nc(N5CCOCC5)nc43)c2)CC1
Not satisfied

Next molecule: CN1CCN(C(=O)c2cncc(N3CCc4c(-c5cnc(N)nc5)nc(N5CCOCC5)nc43)c2)CC1
Not satisfied

----------
protocol_details: Initial plasma concentration in cynomolgus monkey at 2.5 mg/kg, iv by LC-MS/MS analysis
Assay type: ADME, organism-based, Macaca fascicularis
reported_endpoint: C0 (ng/mL)
# output: bare number, implied unit ng/mL

Which value of C0 has been reported for Nc1ncc(-c2nc(N3CCOCC3)nc3c2CCN3c2ccc(C(=O)N3CCOCC3)cc2F)cn1 in the records?
2660

----------
protocol_details: AUC (0 to t) in BALB/c nu mouse at 100 mg/kg, po by LC-MS/MS analysis
Type: ADME, organism-based
run_parameters: in vivo
reported_endpoint: AUC(0-t) (ng·h/mL)
# output: bare number, implied unit ng·h/mL

Which value of AUC(0-t) has been reported for Nc1ncc(-c2nc(N3CCOCC3)nc3c2CCN3c2cccnc2)cn1 in the records?
19400

----------
protocol_details: AUC (infinity) in cynomolgus monkey at 2.5 mg/kg, iv by LC-MS/MS analysis
Type: ADME, organism-based, Macaca fascicularis
Parameters: dose 2.5 mg/kg, time infinity, route intravenous
run_parameters: in vivo
reported_endpoint: AUC(0-inf) (ng·h/mL)
# output: bare number, implied unit ng·h/mL

Which value of AUC(0-inf) has been reported for Nc1ncc(-c2nc(N3CCOCC3)nc3c2CCN3c2ccc(C(=O)N3CCOCC3)cc2F)cn1 in the records?
5570

----------
protocol_details: Clearance in cynomolgus monkey at 2.5 mg/kg, iv by LC-MS/MS analysis
Format: ADME, organism-based, Macaca fascicularis
run_parameters: in vivo
reported_endpoint: clearance (mL/min/kg)
# output: bare number, implied unit mL/min/kg

Which value of clearance has been reported for Nc1ncc(-c2nc(N3CCOCC3)nc3c2CCN3c2ccc(C(=O)N3CCOCC3)cc2F)cn1 in the records?
7.54
